Molecular target: Neuraminidase (Influenza A virus)
Sequence (B4URF0 whole entry): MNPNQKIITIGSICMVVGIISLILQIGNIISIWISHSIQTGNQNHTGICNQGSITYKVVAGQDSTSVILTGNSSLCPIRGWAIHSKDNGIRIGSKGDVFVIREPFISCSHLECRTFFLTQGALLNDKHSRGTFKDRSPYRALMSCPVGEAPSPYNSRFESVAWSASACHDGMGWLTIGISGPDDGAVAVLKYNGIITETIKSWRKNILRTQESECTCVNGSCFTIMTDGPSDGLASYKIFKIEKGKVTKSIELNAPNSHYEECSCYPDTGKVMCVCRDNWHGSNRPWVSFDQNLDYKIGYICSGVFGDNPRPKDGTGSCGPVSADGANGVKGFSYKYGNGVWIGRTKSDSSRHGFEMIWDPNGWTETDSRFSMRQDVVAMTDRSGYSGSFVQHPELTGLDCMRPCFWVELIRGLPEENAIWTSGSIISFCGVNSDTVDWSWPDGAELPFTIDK
Assay: Inhibition of Influenza A virus (A/chicken/Korea/01310/2001 (H9N2)) neuraminidase after 30 mins by spectrofluorimetric analysis
I'd appreciate it if you could supply IC50 values for the items below.

Which IC50 value belongs to `Cc1c(O)cc(O)c2c1O[C@H](c1ccccc1)CC2=O` ? > 500 µM

Okay, and `COc1c(C)c(O)c(C)c2oc(-c3ccccc3)cc(=O)c12` ? 363 µM

Then this compound: `Cc1c(O)c(C)c2c(c1O)C(=O)C[C@@H](c1ccccc1)O2` 319 µM

Try this compound next: `COc1cc(O)c(C)c2c1C(=O)C[C@@H](c1ccccc1)O2` > 500 µM

Here is the next compound: `COc1c(C)c(O)c(C)c2c1C(=O)C[C@@](O)(c1ccccc1)O2` 285 µM

Let us now turn to `COc1c(C)c(O)c2c(c1C=O)O[C@H](c1ccccc1)CC2=O` 299 µM

For `COc1c(C)c(O)c2c(c1C)O[C@H](c1ccccc1)CC2=O` then? > 500 µM

Follow-up entry: `COc1c(C)c(O)c(C)c2occ(-c3ccccc3)c(=O)c12` 391 µM

Another compound: `Cc1c(O)c(C)c2c(c1O)C(=O)[C@H](O)[C@@H](c1ccccc1)O2` 368 µM

Param item: `COc1c(C)c2c(c(O)c1C=O)C(=O)C[C@@H](c1ccccc1)O2` 256 µM
